FYI, the data here is from PubChem BioAssay (EPA / NIEHS).

Read-out: Cytochrome P450 7A1 (Homo sapiens) (UniProt P22680)
assay overview: LTEA_HepaRG_CYP7A1: Life Technologies and Expression Analysis (LTEA) Assay for Cytochrome P450 7A1 (CYP7A1) using HepaRG (AID 2283496)
cond: mRNA level, 48 h; actives raise or lower the signal
Experimental: LTEA_HepaRG is a cell based, multiplexed-readout assay that uses HepaRG, a human liver cell line, with measurements taken at 48 hours after chemical dosing on a 96-well plate.LTEA_HepaRG_CYP7A1 is one of 102 assay component(s) measured in the LTEA HepaRG cell culture assay. It is a marker of NR mediated metabolism.Data from the assay component LTEA_HepaRG_CYP7A1 was analyzed into 1 endpoint. […]
Active and inactive are the calls of the source. How the source made its calls: active means hit-call score of the fitted dose curve at least 0.9, where 1 is the maximum; inactive means score below 0.9.
Use one of these outcomes when replying: active, inactive

[[record]]
compound = "CCCCC(CC)COC(=O)CCCCCCCCC(=O)OCC(CC)CCCC (stereo not given)"
assigned_category = "inactive"

[[record]]
compound = "COc1ccc(/C=C/S(=O)(=O)NC(=O)c2ccc(C)cc2Cl)cc1"
assigned_category = "inactive"

[[record]]
compound = "O=C(O)c1cc(N=Nc2ccc(S(=O)(=O)Nc3ccccn3)cc2)ccc1O"
assigned_category = "inactive"

[[record]]
compound = "Cc1ccc(C)c(O)c1"
assigned_category = "inactive"

[[record]]
compound = "CCCCCCCCO"
assigned_category = "inactive"


Task: Per the assay record, what outcome was assigned to O=C1CCC(N2C(=O)c3ccccc3C2=O)C(=O)N1 (stereo not given) ?
Output: inactive

Task: Another compound to check: C1N2CN3CN1CN(C2)C3
Output: inactive

Task: Another compound to check: COc1ccc2sc(C(=O)Nc3nnn[nH]3)c(OC(C)C)c2c1
Output: active

Task: Another compound to check: COC(=O)c1ccccc1O
Output: inactive

Task: Another compound to check: CC(=O)OC[C@H]1O[C@@](COC(C)=O)(O[C@H]2O[C@H](COC(C)=O)[C@@H](OC(C)=O)[C@H](OC(C)=O)[C@H]2OC(C)=O)[C@@H](OC(C)=O)[C@@H]1OC(C)=O
Output: inactive

---

assay overview: Tanguay_ZF_120hpf_SWIM_legacy: (Legacy) Oregon State University Tanguay Lab 120 Hour Post-fertilization zebrafish Assay for Swim Bladder Malformation (AID 2283654);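 further: swim bladder malformation in each larva scored yes or no under brightfield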
Inconclusive results are not listed. Active and inactive are the calls of the source. The calls were made as follows: active = hit-call score of the fitted dose curve at least 0.9, where 1 is the maximum; inconclusive = response in the unintended direction; inactive = score below 0.9.
Use one of these outcomes when replying: class 1 (active), class 0 (inactive)

[[record]]
compound = "CC1=CC(=O)CC(C)(C)C1"
assigned_category = "class 0"

[[record]]
compound = "O=P(OC(CCl)CCl)(OC(CCl)CCl)OC(CCl)CCl"
assigned_category = "class 1"

[[record]]
compound = "CCCCC(CC)COC(=O)CCCCCCCCC(=O)OCC(CC)CCCC (stereo not drawn)"
assigned_category = "class 0"

[[record]]
compound = "CN(C)c1ccc(Cc2ccc(N(C)C)cc2)cc1"
assigned_category = "class 0"

[[record]]
compound = "COC(=O)CC(=O)OC"
assigned_category = "class 0"

[[record]]
compound = "COCCOCCOCCOC"
assigned_category = "class 0"

[[record]]
compound = "CC/C(=C\\C(=N/O)C(N)=O)C(C)[N+](=O)[O-] (stereo not drawn)"
assigned_category = "class 0"

[[record]]
compound = "CC(=O)OCCC(C)C"
assigned_category = "class 0"


Task: Per the assay record, what outcome was assigned to Nc1cccc(N)c1 ?
Output: class 0

Task: Another compound to check: C1=CCCC=CCCC=CCC1
Output: class 0

Task: Another compound to check: C[C@](N)(Cc1ccc(O)c(O)c1)C(=O)O
Output: class 0

Task: Another compound to check: CCCN(C1CCN(C(=O)C2CCNCC2)CC1)[C@@H]1CCc2ccc(OC)cc2C1
Output: class 0

Task: Another compound to check: CC(C)CCCCCCCOC(=O)CCCCC(=O)OCCCCCCCC(C)C
Output: class 0

---

Read-out: 3-Hydroxy-3-Methylglutaryl-CoA Synthase 2 (HMGCS2), HMGCS2 (gene 3158)
assay overview: LTEA_HepaRG_HMGCS2: Life Technologies and Expression Analysis (LTEA) Assay for 3-Hydroxy-3-Methylglutaryl-CoA Synthase 2 (HMGCS2) using HepaRG (AID 2283504)
cond: mRNA level, 48 h; actives raise or lower the signal
Description: LTEA_HepaRG is a cell based, multiplexed-readout assay that uses HepaRG, a human liver cell line, with measurements taken at 48 hours after chemical dosing on a 96-well plate.LTEA_HepaRG_HMGCS2 is one of 102 assay component(s) measured in the LTEA HepaRG cell culture assay. It is a marker of Steatosis.Data from the assay component LTEA_HepaRG_HMGCS2 was analyzed into 1 endpoint. […]
The source made the active and inactive calls. Rule for the calls: active = hit-call score of the fitted dose curve at least 0.9, where 1 is the maximum; inactive = score below 0.9.
Use one of these outcomes when replying: true for active, false for inactive

[[record]]
compound = "O=c1n(CC2CO2)c(=O)n(CC2CO2)c(=O)n1CC1CO1 (stereo not drawn)"
assigned_category = "false"

[[record]]
compound = "CC1(C)C(=O)N(Br)C(=O)N1Br"
assigned_category = "false"

[[record]]
compound = "Nc1cccc(N)c1"
assigned_category = "false"

[[record]]
compound = "CCCCCCc1ccc(O)cc1O"
assigned_category = "false"

[[record]]
compound = "COc1ccc(/C=C/S(=O)(=O)NC(=O)c2ccc(C)cc2Cl)cc1"
assigned_category = "false"

[[record]]
compound = "CCC(C)(C)C(=O)O[C@H]1C[C@@H](C)C=C2C=C[C@H](C)[C@H](CC[C@@H]3C[C@@H](O)CC(=O)O3)[C@H]21"
assigned_category = "false"


Task: Per the assay record, what outcome was assigned to CC(O)CN(CCN(CC(C)O)CC(C)O)CC(C)O (stereo not drawn) ?
Output: false

Task: Another compound to check: C=CC(=C)CCC=C(C)C
Output: false

Task: Another compound to check: COC(=O)c1ccccc1O
Output: false

Task: Another compound to check: CN(C)c1ccc(N=NS(=O)(=O)O)cc1
Output: false

Task: Another compound to check: O=C(NS(=O)(=O)/C=C/c1ccccc1)c1ccc(F)cc1Cl
Output: true

Task: Another compound to check: Cn1c(=O)cc(Oc2ccc(F)cc2F)c2cnc(NCC(C)(C)O)nc21
Output: false

---

assay overview: APR_HepG2_MitoMass_72hr: Apredica 72-hour HepG2 Assay for Mitochondrial Mass (AID 2282924);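 further: MitoTracker Red CMXRos stain intensity per cell imaged as mitochondrial mass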
cond: high-content imaging, actives raise or lower the signal
Activity calls are given as the source filed them. Rule for the calls: active = hit-call score of the fitted dose curve at least 0.9, where 1 is the maximum; inactive = score below 0.9.
Use one of these outcomes when replying: 1 (active), 0 (inactive)

[[record]]
molecule = "CN(C)c1ccc(Cc2ccc(N(C)C)cc2)cc1"
assigned_category = 0

[[record]]
molecule = "COC(=O)c1ccccc1O"
assigned_category = 0

[[record]]
molecule = "CC(C)CCCCCCOC(=O)c1ccc(C(=O)OCCCCCCC(C)C)c(C(=O)OCCCCCCC(C)C)c1"
assigned_category = 0

[[record]]
molecule = "Cc1ccc(S(=O)(=O)O)cc1C"
assigned_category = 1

[[record]]
molecule = "CCNc1ccccc1"
assigned_category = 0

[[record]]
molecule = "CC(=O)OC[C@H]1O[C@@](COC(C)=O)(O[C@H]2O[C@H](COC(C)=O)[C@@H](OC(C)=O)[C@H](OC(C)=O)[C@H]2OC(C)=O)[C@@H](OC(C)=O)[C@@H]1OC(C)=O"
assigned_category = 0

[[record]]
molecule = "COc1ccc2sc(C(=O)Nc3nnn[nH]3)c(OC(C)C)c2c1"
assigned_category = 0

[[record]]
molecule = "O=C(OC[C@H]1O[C@@H](OC(=O)c2cc(O)c(O)c(OC(=O)c3cc(O)c(O)c(O)c3)c2)[C@H](OC(=O)c2cc(O)c(O)c(OC(=O)c3cc(O)c(O)c(O)c3)c2)[C@@H](OC(=O)c2cc(O)c(O)c(OC(=O)c3cc(O)c(O)c(O)c3)c2)[C@@H]1OC(=O)c1cc(O)c(O)c(OC(=O)c2cc(O)c(O)c(O)c2)c1)c1cc(O)c(O)c(OC(=O)c2cc(O)c(O)c(O)c2)c1"
assigned_category = 1

[[record]]
molecule = "O=C(CCCCCCCCc1cccnc1)N1CCC(C=C(c2ccccc2)c2ccccc2)CC1"
assigned_category = 0

[[record]]
molecule = "Cn1c(=O)cc(Oc2ccc(F)cc2F)c2cnc(NCC(C)(C)O)nc21"
assigned_category = 0


Task: Per the assay record, what outcome was assigned to CC(C)c1cccc(C(C)C)c1N1C(=O)c2ccc(O)cc2C1=O ?
Output: 0

Task: Another molecule to check: O=C(O)c1cccc(N(Cc2cccnc2)c2ccc(OC(F)F)c(OC(F)F)c2)c1
Output: 0

Task: Another molecule to check: CCOCCOCCOCCO
Output: 0

---

Read-out: adenosine kinase (ADK) gene, ADK (gene 132)
assay overview: LTEA_HepaRG_ADK: Life Technologies and Expression Analysis (LTEA) Assay for adenosine kinase (ADK) gene using HepaRG (AID 2283471)
cond: mRNA level, 48 h; actives raise or lower the signal
Active and inactive are the calls of the source. How the source made its calls: active means hit-call score of the fitted dose curve at least 0.9, where 1 is the maximum; inactive means score below 0.9.
Use one of these outcomes when replying: active, inactive

[[record]]
compound = "COc1ccc(-n2nc(C(F)F)cc2-c2ccc(S(C)=O)cc2)cc1 (stereo unspecified)"
assigned_category = "inactive"

[[record]]
compound = "O=C(CCCCCCCCc1cccnc1)N1CCC(C=C(c2ccccc2)c2ccccc2)CC1"
assigned_category = "inactive"

[[record]]
compound = "O=C(OC[C@H]1O[C@@H](OC(=O)c2cc(O)c(O)c(OC(=O)c3cc(O)c(O)c(O)c3)c2)[C@H](OC(=O)c2cc(O)c(O)c(OC(=O)c3cc(O)c(O)c(O)c3)c2)[C@@H](OC(=O)c2cc(O)c(O)c(OC(=O)c3cc(O)c(O)c(O)c3)c2)[C@@H]1OC(=O)c1cc(O)c(O)c(OC(=O)c2cc(O)c(O)c(O)c2)c1)c1cc(O)c(O)c(OC(=O)c2cc(O)c(O)c(O)c2)c1"
assigned_category = "inactive"

[[record]]
compound = "Cc1ccc(C)c(O)c1"
assigned_category = "inactive"

[[record]]
compound = "CCCCCCc1ccc(O)cc1O"
assigned_category = "inactive"

[[record]]
compound = "CC(C)c1cccc(C(C)C)c1N1C(=O)c2ccc(O)cc2C1=O"
assigned_category = "inactive"


Task: Per the assay record, what outcome was assigned to CC(C)CCO ?
Output: inactive

Task: Another compound to check: CCOC(=O)c1ccc(C2CCC(NC[C@H](O)COc3ccc(O)c(NS(C)(=O)=O)c3)CC2)cc1 (stereo partly specified)
Output: inactive

Task: Another compound to check: CC(C)(O)c1coc(S(=O)(=O)NC(=O)Nc2c3c(cc4c2CCC4)CCC3)c1
Output: inactive

Task: Another compound to check: CCOCCO
Output: inactive

Task: Another compound to check: CCCCCCCCCCCCc1ccccc1
Output: inactive

Task: Another compound to check: COCCOc1cc2cc(C(=O)NC3CCN(C(C)C)CC3)n(CC(=O)Nc3ccc(Cl)cn3)c2cn1
Output: inactive

Task: Another compound to check: CC(C)=CCC/C(C)=C/CO
Output: inactive

Task: Another compound to check: CCOc1cccc(-n2cc(C(=O)N3CCN(c4cc(C(=O)O)c5ccccc5c4)CC3)nc2-c2ccc(C)cc2)c1
Output: active

Task: Another compound to check: Fc1ccccc1[C@@H](F)COC1CCC(Nc2ncnc3[nH]ncc23)CC1 (stereo partly specified)
Output: active

Task: Another compound to check: Cc1ccc(N)cc1O
Output: inactive
